Molecular target: T1, full length human PAR-2 (human, UniProt P55085 26-397)
T1 construct: overexpressed on HEK293-derived 293/D9 cells; also called 293/D9/hPAR-2rec cells
T1 sequence (P55085 26-397 G138A limits assumed): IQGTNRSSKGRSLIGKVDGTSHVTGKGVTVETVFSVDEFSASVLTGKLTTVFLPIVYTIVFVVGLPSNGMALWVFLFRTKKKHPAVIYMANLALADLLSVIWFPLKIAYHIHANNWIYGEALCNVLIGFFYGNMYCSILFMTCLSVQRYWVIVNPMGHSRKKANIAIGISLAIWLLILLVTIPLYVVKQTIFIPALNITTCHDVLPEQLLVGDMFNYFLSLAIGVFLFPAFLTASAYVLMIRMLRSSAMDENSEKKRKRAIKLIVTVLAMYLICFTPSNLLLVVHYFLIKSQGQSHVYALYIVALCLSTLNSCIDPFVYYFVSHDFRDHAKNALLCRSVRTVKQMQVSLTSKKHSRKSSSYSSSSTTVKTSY
Test: MSD cell binding
Below is a list of entries, each paired with its recorded Bmax value.
The reply must contain the numeric value and, after it, the unit.

A selection of reference data follows.
binder | Bmax
H4H583P (antibody, human IgG4, V domains shown, also called H1H583P variable regions) VH: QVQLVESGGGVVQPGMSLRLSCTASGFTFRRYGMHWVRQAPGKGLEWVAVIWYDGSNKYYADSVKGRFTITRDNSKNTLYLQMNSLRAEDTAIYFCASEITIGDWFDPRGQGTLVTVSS VL: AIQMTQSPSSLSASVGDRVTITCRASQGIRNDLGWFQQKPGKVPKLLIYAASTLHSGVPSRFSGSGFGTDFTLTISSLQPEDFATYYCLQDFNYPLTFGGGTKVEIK | 13300 MSD Unit
H4H585P (antibody, human IgG4, V domains shown, also called H1H585P variable regions) VH: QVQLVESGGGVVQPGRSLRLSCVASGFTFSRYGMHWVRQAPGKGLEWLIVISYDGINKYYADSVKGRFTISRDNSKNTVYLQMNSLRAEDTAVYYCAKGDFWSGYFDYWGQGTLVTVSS VL: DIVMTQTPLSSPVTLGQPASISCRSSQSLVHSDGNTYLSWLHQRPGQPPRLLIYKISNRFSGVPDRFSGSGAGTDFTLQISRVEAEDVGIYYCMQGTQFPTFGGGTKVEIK | 22500 MSD Unit

Read the next record carefully.
Which value of Bmax has been reported for H4H581P (antibody, human IgG4, V domains shown, also called mAb H4H581P; H1H581P variable regions) VH: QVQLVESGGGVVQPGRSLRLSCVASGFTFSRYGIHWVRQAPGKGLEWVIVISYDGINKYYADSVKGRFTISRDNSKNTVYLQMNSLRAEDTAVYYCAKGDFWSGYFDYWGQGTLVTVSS VL: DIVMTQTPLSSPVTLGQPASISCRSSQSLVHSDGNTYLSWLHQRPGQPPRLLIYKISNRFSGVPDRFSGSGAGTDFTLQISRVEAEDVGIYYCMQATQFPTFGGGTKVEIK in the records?
28200 MSD Unit
